test-system: T1, His-tagged P3028 peptide (PGE73) (human)
T1 construct: albumin-derived peptide, in solution at 0.5 ug/mL; not shown: His-tag
T1 peptide: VFDEFKPLVEEPQNLIK
experiment: PEPSCAN ELISA, peptide on card
endpoint: RAMPO Score

1) KKLDTFFVKLSLFVER [SEQ ID NO: 385 KKLDTFFVKLSLFVER] : 380
2) KKLDNFFVKLSLFTER [SEQ ID NO: 306 KKLDNFFVKLSLFTER] : 436
3) KKLDTFFVKMSLFTER [SEQ ID NO: 336 KKLDTFFVKMSLFTER] : 460
4) KKLDTFFRKLSLFTER [SEQ ID NO: 330 KKLDTFFRKLSLFTER] : 365

Origin of values: patent US20170298096A1
